Cited source for all entries: the supplement of paper PMC6555819

# System: RARa homodimer (NR concentration 270 nM)
# ASSAY_NAME: PBM binding z-score (relative to random genomic background probes); higher = stronger binding; sequences stand for … in GC…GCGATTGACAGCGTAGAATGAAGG
EXPERIMENTAL_ENDPOINT: PBM binding z-score
One number for each entry.

// query Report PBM binding z-score for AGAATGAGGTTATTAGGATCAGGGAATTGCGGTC
// result 1.06

I would be grateful if you could provide PBM binding z-score for each of the following entries.
1. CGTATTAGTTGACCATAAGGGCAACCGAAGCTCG
2. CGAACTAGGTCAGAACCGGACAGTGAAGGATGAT

// result
1: 0.774; 2: -0.208

I would be grateful if you could provide PBM binding z-score for each of the following entries.
1. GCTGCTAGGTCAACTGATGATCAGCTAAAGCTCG
2. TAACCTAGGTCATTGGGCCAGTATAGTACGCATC
3. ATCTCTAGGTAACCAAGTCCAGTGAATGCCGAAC
4. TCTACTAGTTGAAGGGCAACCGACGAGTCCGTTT
5. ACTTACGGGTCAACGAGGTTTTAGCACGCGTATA
6. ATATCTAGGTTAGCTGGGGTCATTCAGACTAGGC
7. ATCTCTCGGTAAAGTTCAGTGAAAGATCGATAGA
8. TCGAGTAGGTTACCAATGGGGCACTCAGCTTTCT

// result
-0.292
0.714
0.592
-0.569
0.666
1.57
1.08
-0.688

###

Task for the reader: assign each of the following sequences its reported PBM binding z-score.
# Test system: VDR homodimer (NR concentration 270 nM)
# ASSAY_NAME: PBM binding z-score (relative to random genomic background probes); higher = stronger binding; sequences stand for … in GC…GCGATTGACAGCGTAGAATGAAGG
Give bare numbers.

Answered cases to consult:
// query Report PBM binding z-score for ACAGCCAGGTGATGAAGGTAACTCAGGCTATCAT
// result -0.584

// query Report PBM binding z-score for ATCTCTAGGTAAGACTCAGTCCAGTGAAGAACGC
// result 0.336

// query Report PBM binding z-score for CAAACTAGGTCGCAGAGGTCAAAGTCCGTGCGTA
// result 5.86

I would be grateful if you could provide PBM binding z-score for each of the following entries.
1. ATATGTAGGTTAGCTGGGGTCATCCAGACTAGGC
2. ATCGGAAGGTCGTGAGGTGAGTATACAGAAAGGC
3. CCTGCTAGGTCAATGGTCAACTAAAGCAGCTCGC
4. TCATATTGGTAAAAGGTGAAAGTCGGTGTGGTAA
5. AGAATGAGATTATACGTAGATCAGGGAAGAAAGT
6. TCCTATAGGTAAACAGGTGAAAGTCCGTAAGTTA
7. GCGTGTAGATCAAGGTTAAGAAAGACTAAGCTAA

// result
1. 4.34
2. 1.04
3. 0.324
4. 0.829
5. 0.0852
6. 0.275
7. -0.286

###

# System: RXRa homodimer (NR concentration 180 nM)
# ASSAY_NAME: PBM binding z-score (relative to random genomic background probes); higher = stronger binding; sequences stand for … in GC…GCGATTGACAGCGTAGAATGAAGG
Label scheme for PBM binding z-score: lower than 1 is FALSE, 1 and above is TRUE.

Example cases with answers are listed next.
// query Confirm if PBM binding z-score reported for the sequence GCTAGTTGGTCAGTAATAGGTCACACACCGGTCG is 1 or above.
// result TRUE

// query Confirm if PBM binding z-score reported for the sequence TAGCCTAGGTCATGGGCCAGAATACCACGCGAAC is 1 or above.
// result TRUE

// query Confirm if PBM binding z-score reported for the sequence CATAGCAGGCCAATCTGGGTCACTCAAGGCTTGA is 1 or above.
// result TRUE

// query Confirm if PBM binding z-score reported for the sequence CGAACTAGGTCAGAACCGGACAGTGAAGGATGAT is 1 or above.
// result TRUE

// query Confirm if PBM binding z-score reported for the sequence CCTACTGGGCCAAGGTCATTGAACAGTCAAAGCA is 1 or above.
// result TRUE

Would you kindly look at the next entry?
// query Confirm if PBM binding z-score reported for the sequence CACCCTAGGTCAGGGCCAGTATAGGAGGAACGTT is 1 or above.
// result TRUE
